System: EKVX
Assay: NCI tumour cell line growth inhibition, 48 h
Active and inactive are the calls of the source. Cut-off read from the data, not from the text of the source: active = GI50 up to about 1.1 µM and inactive = higher.
A correct response names exactly one class from active, inactive

As a guide, the following entries are already answered.
compound | assigned-class
CCN(CC)CCCC(C)Nc1ccnc(/C=C/c2ccc(Cl)cc2)c1 (stereo not given) | inactive
NC1CNC(=O)c2cscc21 (stereo not given) | inactive
COC(=O)C1=C(C(=O)NNc2ccccc2)N(c2cccnc2Cl)C(c2ccccc2)=CC1c1ccccc1 (stereo not given) | inactive
[N-]=[N+]=Nc1c(-c2ccccc2)c(=O)n(-c2ccccc2)c2ccccc12 | inactive
CC[C@@]12N=C(N(C)C)C[C@]1(O)ON=C2C | inactive
CC1(C)OC2[C@@H](CO[C@@]3([C@H]4OC(C)(C)O[C@@H]4CO)OC(C)(C)O[C@@H]23)O1 (stereo not given in full) | inactive
N#CC1(C#N)C(c2ccc(C3C(C#N)(C#N)C3(C#N)C#N)cc2)C1(C#N)C#N | inactive
CC1=CC(=O)N2[C@H](OC[C@@H]2C(C)C)O1 | inactive
O=CNc1ccc(S(=O)(=O)c2ccc(NC=O)cc2)cc1 | inactive

--- query ---
### Prompt What did this assay record as the result for COc1ccc([C@@]23Oc4cc(OC)cc(OC)c4[C@]2(O)[C@H](O)[C@H](C(N)=O)[C@H]3c2ccccc2)cc1 [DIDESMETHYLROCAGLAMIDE] ?
### Response active
